Reported Z score values for a set of compounds
- Tested on: Plasmodium falciparum
- method notes: Primary screen in NF54 nanoGlo assay, in single point, at 2uM, 72h; a lower Z score goes with more inhibition
- Format: functional, Erythrocyte
- experimental parameters: timepoint 72 hour
Among all 150,000 compounds or so, about 540 (0.36%) showed an effect of 50% or more. Shown is part of a subset that was picked to be rich in strong results.
metric: Z score

- O=C(NCC1CCOCC1)c1ccc(-c2ccc(Cl)cn2)cc1: -1.01
- O=C(NCC1CCOCC1)c1ccc(-c2ccc(C(F)(F)F)cn2)cc1: -0.21
- COc1cccc([C@H]2CC(O)=Nc3c2ncn3-c2cccnc2)c1OC(C)C: -3.13
- Cc1ccc(OCC(=O)Nc2noc(-c3ccc(F)cc3)n2)cc1: 1.23
- O=C1N[C@H]2CC[C@@H]1CN(C(=O)c1cccc(-c3ccc4nccc(O)c4c3)c1)C2: 0.64
- Cc1cc(C)nc(-c2cccc(C(=O)NC[C@H]3CCOC3)c2)n1: 0.19
- CNS(=O)(=O)CC1CCCN1CC1CCC(C)O1 (stereo unspecified): 0.75
- COc1nc(-c2cccc(C(=O)NCC3CCOCC3)c2)ncc1F: -12.03
- CC(C)c1noc(CN2CC[C@H](NC(=O)c3ccccn3)[C@@H](O)C2)n1: 0.42
- C=CCOC1CCN(C(=O)CCN2CCOC2=O)CC1: 0.57
- COc1nc(-c2cccc(C(=O)N3C[C@@H]4CC[C@H](C3)C(=O)N4)c2)ncc1F: -12.2
